These entries and their values trace back to patent US20250108036A1.

Documented Survival (%) across a set of compounds
- System: foreskin cells in which senescence was induced by doxorubicin
- Protocol summary: CellTiter-Glo cell viability of doxorubicin-induced senescent foreskin cells (Examples 1-2, 10, 11, 13; Tables 4, 63, 65)
- Assay type: cell-based, human
- Conditions: […] test compound; doxorubicin-induced senescent foreskin cells; CellTiter-Glo; 0 μM = 100
Remember to put the unit after the number in your answer.

Consider the reported Survival (%) for these compounds:
CC(N)(Cc1ccc(O)cc1)C(=O)O (racemic) [LX-3206, Racemetyrosine, reference compound] | 96%
CS(=O)(=O)c1ncc(Cl)c(C(=O)O)n1 [LX-917] | 93.2%

Tell me its Survival (%) given S=C(N/N=C1\CCCc2cccnc21)N1CCN(c2ccccn2)CC1 [LX-801] as the entry. 48.9%

Tell me its Survival (%) given C[C@@H]1C(=O)C(C#N)=C[C@]2(c3ccccc3)c3c(c(-c4cncnc4)nn3C)CC[C@@H]12 [LX-2408] as the entry. 37.5%

Tell me its Survival (%) given Cc1nnc(NC(=O)c2nc(S(=O)(=O)Cc3ccc(F)cc3)ncc2Cl)s1 [LX-916] as the entry. 94.2%

Tell me its Survival (%) given CN1CC[C@@H](Nc2cccc3c2cc(-c2noc(CNC(=O)c4cnn(C(C)(C)C)c4)n2)n3CC(F)(F)F)[C@@H](F)C1 [LX-915] as the entry. 83.2%

Tell me its Survival (%) given O=C(NCCCCCCCCCC[P+](c1ccccc1)(c1ccccc1)c1ccccc1)c1nn(Cc2ccc(Cl)cc2Cl)c2ccccc12.[Br-] [LX-1207] as the entry. 10%

Tell me its Survival (%) given CN(C)CCn1cc(-c2ccc(F)cc2)c(-n2cccc2)n1 [LX-909] as the entry. 85.5%
